Field: pIC50. Provide a value for each of the compounds that follow.
Biological target: Amaranthus mutant PPO (AMARE) (Amaranthus tuberculatus)
Sequence (Q0NZW7 1-533): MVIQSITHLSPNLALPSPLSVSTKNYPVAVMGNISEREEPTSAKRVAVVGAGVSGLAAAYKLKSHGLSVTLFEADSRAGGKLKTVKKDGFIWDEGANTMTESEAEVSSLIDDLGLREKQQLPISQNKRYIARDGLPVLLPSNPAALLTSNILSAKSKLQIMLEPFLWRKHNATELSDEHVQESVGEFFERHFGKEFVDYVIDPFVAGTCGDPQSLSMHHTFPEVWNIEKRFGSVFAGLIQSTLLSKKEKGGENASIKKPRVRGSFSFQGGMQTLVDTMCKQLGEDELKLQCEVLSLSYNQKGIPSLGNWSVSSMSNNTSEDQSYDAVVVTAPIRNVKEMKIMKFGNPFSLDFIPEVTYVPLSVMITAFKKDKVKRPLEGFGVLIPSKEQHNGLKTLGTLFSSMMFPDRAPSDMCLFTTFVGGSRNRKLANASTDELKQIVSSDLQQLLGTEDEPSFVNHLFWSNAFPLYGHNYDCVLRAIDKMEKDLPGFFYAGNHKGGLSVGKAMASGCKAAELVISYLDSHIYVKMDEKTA
Experiment: biochemical
Keep it numeric: pIC50 is minus log10 of the concentration in mol/L.

Req: Consider the compound shown here: C#CCN1C(=O)C(F)(F)Oc2cc(F)c(-n3c(=O)n(C)c(=S)n(C)c3=O)cc21 [BAS 850H] What is its recorded pIC50?
Resp: 8.67

Req: May I ask what pIC50 has been recorded for CC(C)N(C)S(=O)(=O)NC(=O)c1cc(-n2c(=O)cc(C(F)(F)F)n(C)c2=O)c(F)cc1Cl ?
Resp: 5.80

====

target: Amaranthus mutant PPO (AMARE) (Amaranthus tuberculatus, UniProt Q0NZW9, F420M/R128A); experiment: biochemical
pIC50: −log10 of the molar value.
RECORDED ENDPOINT: pIC50

Req: What does the record list as pIC50 for CC(C)N(C)S(=O)(=O)NC(=O)c1cc(-n2c(=O)cc(C(F)(F)F)n(C)c2=O)c(F)cc1Cl ?
Resp: < 5.00

====

molecular target: Amaranthus mutant PPO (AMARE) (Amaranthus tuberculatus, UniProt Q0NZW9, F420L); assay: biochemical
RECORDED ENDPOINT: pIC50
# log scale: pIC50 equals minus log10 of the concentration in mol/L

Req: Which pIC50 value belongs to CC(C)N(C)S(=O)(=O)NC(=O)c1cc(-n2c(=O)cc(C(F)(F)F)n(C)c2=O)c(F)cc1Cl ?
Resp: 5.14

====

Biological target: Amaranthus mutant PPO (AMARE) (Amaranthus tuberculatus, UniProt Q0NZW9, F420I/R128A)
Sequence (Q0NZW9 1-534 R128A/F420I): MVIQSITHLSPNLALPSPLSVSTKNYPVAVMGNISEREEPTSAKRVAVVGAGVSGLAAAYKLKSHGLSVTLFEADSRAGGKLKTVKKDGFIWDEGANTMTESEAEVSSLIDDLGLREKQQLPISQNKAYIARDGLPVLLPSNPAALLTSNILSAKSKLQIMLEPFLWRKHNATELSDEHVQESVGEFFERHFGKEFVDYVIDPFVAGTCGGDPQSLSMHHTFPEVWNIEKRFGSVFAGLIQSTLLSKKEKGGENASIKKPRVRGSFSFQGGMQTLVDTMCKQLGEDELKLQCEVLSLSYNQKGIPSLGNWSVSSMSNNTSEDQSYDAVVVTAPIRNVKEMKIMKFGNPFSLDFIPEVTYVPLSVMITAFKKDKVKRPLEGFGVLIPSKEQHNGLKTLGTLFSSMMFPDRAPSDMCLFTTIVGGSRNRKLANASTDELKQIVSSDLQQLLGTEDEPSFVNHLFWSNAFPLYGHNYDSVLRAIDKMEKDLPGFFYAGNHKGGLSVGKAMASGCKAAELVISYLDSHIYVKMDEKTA
Assay: biochemical
RECORDED ENDPOINT: pIC50
Scale explanation: pIC50 corresponds to minus log10 of a concentration expressed in moles per litre.

Req: Can you share its pIC50? I mean this compound: C#CCN1C(=O)C(F)(F)Oc2cc(F)c(-n3c(=O)n(C)c(=S)n(C)c3=O)cc21 [BAS 850H]
Resp: 7.61

====

target: Amaranthus mutant PPO (AMARE) (Amaranthus tuberculatus, UniProt Q0NZW9, F420L/R128I); test: biochemical
RECORDED ENDPOINT: IC50 (nM)
Response body: numeric value in nM, unit text excluded.

Req: Which IC50 value is on record for C#CCN1C(=O)C(F)(F)Oc2cc(F)c(-n3c(=O)n(C)c(=S)n(C)c3=O)cc21 [BAS 850H] ?
Resp: 466

====

molecular target: Amaranthus mutant PPO (AMARE) (Amaranthus tuberculatus, UniProt Q0NZW9, R128I); test: biochemical
RECORDED ENDPOINT: IC50 (nM)
Write the value in nM as a bare number.

Req: Recorded IC50 of CC(C)N(C)S(=O)(=O)NC(=O)c1cc(-n2c(=O)cc(C(F)(F)F)n(C)c2=O)c(F)cc1Cl [saflufenacil] , please.
Resp: 365

====

biological target: Amaranthus mutant PPO (AMARE) (Amaranthus tuberculatus, UniProt Q0NZW9, F420I/R128L); experiment: biochemical
RECORDED ENDPOINT: pIC50
When answering, recall that pIC50 equals minus log10 of the concentration in mol/L, and write that number alone.

Req: For the record C#CCN1C(=O)C(F)(F)Oc2cc(F)c(-n3c(=O)n(C)c(=S)n(C)c3=O)cc21 [BAS 850H] , what value of pIC50 is listed for Amaranthus mutant PPO (AMARE) (Amaranthus tuberculatus, UniProt Q0NZW9, F420I/R128L)?
Resp: 5.91

====

target: Amaranthus mutant PPO (AMARE) (Amaranthus tuberculatus, UniProt Q0NZW9, F420M/R128L); test: biochemical
RECORDED ENDPOINT: IC50 (nM)
Could you give me the number in nM? Just the number is fine.

Req: Consider the molecule shown here: C#CCN1C(=O)C(F)(F)Oc2cc(F)c(-n3c(=O)n(C)c(=S)n(C)c3=O)cc21 [BAS 850H] What is its recorded IC50?
Resp: 246

====

Target: Amaranthus mutant PPO (AMARE) (Amaranthus tuberculatus, UniProt Q0NZW9, F420I/R128I)
Sequence (Q0NZW9 1-534 R128I/F420I): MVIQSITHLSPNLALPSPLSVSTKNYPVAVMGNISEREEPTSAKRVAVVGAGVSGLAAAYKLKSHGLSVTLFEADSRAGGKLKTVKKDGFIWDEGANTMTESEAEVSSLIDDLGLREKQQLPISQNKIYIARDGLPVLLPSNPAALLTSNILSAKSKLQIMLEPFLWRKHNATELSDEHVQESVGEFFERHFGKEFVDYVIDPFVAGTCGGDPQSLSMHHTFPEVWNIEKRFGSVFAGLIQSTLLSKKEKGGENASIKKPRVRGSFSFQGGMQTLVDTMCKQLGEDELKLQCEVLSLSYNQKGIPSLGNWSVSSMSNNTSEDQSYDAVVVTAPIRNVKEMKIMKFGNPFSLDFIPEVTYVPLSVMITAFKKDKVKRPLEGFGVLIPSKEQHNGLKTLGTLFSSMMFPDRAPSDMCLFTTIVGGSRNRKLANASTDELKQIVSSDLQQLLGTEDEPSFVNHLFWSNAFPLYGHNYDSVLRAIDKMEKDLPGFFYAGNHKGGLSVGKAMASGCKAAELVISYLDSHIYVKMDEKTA
Test: biochemical
RECORDED ENDPOINT: pIC50
In simple prose, pIC50 is minus the logarithm base ten of a concentration in moles per litre.

Req: Which value of pIC50 has been reported for C#CCN1C(=O)C(F)(F)Oc2cc(F)c(-n3c(=O)n(C)c(=S)n(C)c3=O)cc21 [BAS 850H] in the records?
Resp: 6.36

====

Target: Amaranthus mutant PPO (AMARE) (Amaranthus tuberculatus, UniProt Q0NZW9, F420I)
Sequence (Q0NZW9 1-534 F420I): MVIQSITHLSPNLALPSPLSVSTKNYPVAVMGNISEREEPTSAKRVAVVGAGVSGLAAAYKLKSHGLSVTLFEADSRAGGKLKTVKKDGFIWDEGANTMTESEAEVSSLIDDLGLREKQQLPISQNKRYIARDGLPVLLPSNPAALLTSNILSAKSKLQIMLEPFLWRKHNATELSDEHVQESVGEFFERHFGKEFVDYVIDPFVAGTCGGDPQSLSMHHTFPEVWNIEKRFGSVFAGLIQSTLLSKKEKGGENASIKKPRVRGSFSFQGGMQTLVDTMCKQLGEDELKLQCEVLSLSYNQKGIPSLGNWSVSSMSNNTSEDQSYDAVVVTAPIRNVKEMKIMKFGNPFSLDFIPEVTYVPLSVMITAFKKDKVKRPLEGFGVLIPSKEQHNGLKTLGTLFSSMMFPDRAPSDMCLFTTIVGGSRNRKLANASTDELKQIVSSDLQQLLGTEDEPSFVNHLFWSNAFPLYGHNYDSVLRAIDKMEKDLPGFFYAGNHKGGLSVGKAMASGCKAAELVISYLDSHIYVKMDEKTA
Assay: biochemical
RECORDED ENDPOINT: IC50 (nM)
Reply numerically in nM, unit not repeated.

Req: I'd like to know its IC50. The compound in question is CC(C)N(C)S(=O)(=O)NC(=O)c1cc(-n2c(=O)cc(C(F)(F)F)n(C)c2=O)c(F)cc1Cl
Resp: 919

Numbers sourced from patent US10392630B2.
